For each of the molecules below, state its remaining activity at 0.01 µM.
Target: EphB4 (Homo sapiens)
Sequence (P54760 16-987): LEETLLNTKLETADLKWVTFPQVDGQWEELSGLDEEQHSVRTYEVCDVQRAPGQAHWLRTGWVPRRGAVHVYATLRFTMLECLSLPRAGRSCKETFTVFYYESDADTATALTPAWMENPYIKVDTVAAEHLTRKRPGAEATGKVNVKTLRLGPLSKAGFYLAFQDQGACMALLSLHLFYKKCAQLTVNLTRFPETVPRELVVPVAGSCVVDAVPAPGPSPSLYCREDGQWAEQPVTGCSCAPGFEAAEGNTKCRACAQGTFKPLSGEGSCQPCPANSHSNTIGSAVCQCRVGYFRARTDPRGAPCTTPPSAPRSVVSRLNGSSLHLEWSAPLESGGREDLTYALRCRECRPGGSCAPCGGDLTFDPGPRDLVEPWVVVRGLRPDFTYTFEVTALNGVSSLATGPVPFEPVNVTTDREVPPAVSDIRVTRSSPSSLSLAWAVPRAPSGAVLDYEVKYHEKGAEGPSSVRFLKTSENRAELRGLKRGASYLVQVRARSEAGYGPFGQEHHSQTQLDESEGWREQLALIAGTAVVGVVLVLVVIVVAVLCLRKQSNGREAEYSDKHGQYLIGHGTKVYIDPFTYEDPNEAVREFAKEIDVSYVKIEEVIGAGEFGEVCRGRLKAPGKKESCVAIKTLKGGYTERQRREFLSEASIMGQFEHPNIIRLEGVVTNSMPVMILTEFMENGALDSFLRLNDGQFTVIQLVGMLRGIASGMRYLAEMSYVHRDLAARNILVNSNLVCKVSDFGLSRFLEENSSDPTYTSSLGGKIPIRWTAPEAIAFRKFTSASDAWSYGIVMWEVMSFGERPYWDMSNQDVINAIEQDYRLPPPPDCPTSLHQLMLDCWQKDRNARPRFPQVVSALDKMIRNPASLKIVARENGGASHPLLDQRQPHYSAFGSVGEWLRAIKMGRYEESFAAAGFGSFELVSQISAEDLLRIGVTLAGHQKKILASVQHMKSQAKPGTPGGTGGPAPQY
Assay: Eph receptor kinase activity assay (radiometric), EphB4
Assay type: biochemical
Details: 10 nM compound; read-out: EphB4 % act 10 nM
Give a bare numeral; the unit % is implied.

Field remaining activity at 0.01 µM (system: EphB4 (Homo sapiens)) for entry COc1ccc(-c2ccc3ncc(C(=O)Nc4ccccc4Cl)n3c2)cc1 = 104

Case O=C(Nc1ccccc1Cl)c1cnc2ccc(-c3ncccn3)cn12 , EphB4 (Homo sapiens), remaining activity at 0.01 µM recorded as 89

O=C(Nc1ccccc1Cl)c1cnc2ccc(-c3cccnc3)cn12 on EphB4 (Homo sapiens) gives remaining activity at 0.01 µM = 30

Form: item CN(C)CC(=O)N1CCC(c2ccc3ncc(C(=O)Nc4ccccc4Cl)n3c2)CC1 ; test system EphB4 (Homo sapiens); remaining activity at 0.01 µM: 87.2

Summary: COc1ccc(Cl)c(NC(=O)c2cnc3ccc(C4CCNCC4)cn23)c1 , EphB4 (Homo sapiens), remaining activity at 0.01 µM = 97.4

Field remaining activity at 0.01 µM (EphB4 (Homo sapiens)), entry O=C(Nc1ccccc1Cl)c1cnc2ccc(-c3ccncc3)cn12 : 39

Lab entry: EphB4 (Homo sapiens) assay, molecule NC(=O)c1cccc(-c2ccc3ncc(C(=O)Nc4ccccc4Cl)n3c2)c1 , remaining activity at 0.01 µM = 75

Value (remaining activity at 0.01 µM, EphB4 (Homo sapiens)) for record Cc1ccccc1-c1ccc2ncc(C(=O)Nc3ccccc3Cl)n2c1 = 98.9

Lab note: molecule COc1cccc(-c2ccc3ncc(C(=O)Nc4ccccc4Cl)n3c2)c1 tested on EphB4 (Homo sapiens); recorded remaining activity at 0.01 µM was 94.7

All values here come from patent US20240189289A1.
